# protein stability index per record follows
B1: ANKRD9 (parent)
chain: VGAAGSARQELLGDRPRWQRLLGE

# Variants of: B1
# test: protein stability index of a GFP-peptide fusion (GPS, HEK-293T) (PSI 1-6); higher = more stable;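 further: lentivirally expressed fusions sorted by FACS into six bins by GFP to DsRed ratio, PSI derived from sequencing read proportions per bin multiplied by bin number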
# condition-set: c terminus: a fixed tail appended

mutant-id	protein stability index
R8P	2.94
Q19P	3.79
L21R	3.11
R8A	2.96
R20A	2.58
S6D	3.8
A4F	2.44
L11R	2.48
R8V	3.32
G13P	3.7
G23Y	2.88
G13N	3.55
R17W	2.61
G23I	2.88
L12N	3.43
S6Y	2.73
R8Y	2.96
Q19V	2.9
G2M	2.69
A4C	2.09
R17S	4.09
E24M	3.34
R20Y	2.62
Q19A	2.15
P16H	2.83
Q19T	2.49
V1Q	3.7
R20F	3.28
Q19M	3.26
G2P	3.11
V1C	1.95
P16M	2.94
V1K	3.69

FYI, the data here is from the supplement of paper PMC10567573.
